Reference for the values: the supplement of paper PMC4466140

EXPERIMENTAL_SYSTEM: SpHse1
MEASUREMENT_DESCRIPTION: SPOT peptide array binding signal intensity (averaged, normalized) (arbitrary units (background-subtracted, floor 0; scale differs between SH3 domains)); higher = stronger binding of the SH3 domain to the peptide
The threshold is inclusive: SPOT peptide array binding signal intensity of exactly 100 counts as 1 (yes); values below receive 0 (no).

INSERT INTO measurements (binder, qualitative_label) VALUES
  ('NNNKMRPHLPPLSSG', '1 (yes)'),
  ('SSTPTTPERPKRKSG', '0 (no)'),
  ('SSSSSPPPLPTRRDH', '0 (no)'),
  ('NMLKKKPLKKPLKRF', '1 (yes)'),
  ('VTHRLRISIPGITGR', '1 (yes)'),
  ('PSRRAPLQLPQLVNK', '0 (no)'),
  ('TYNRTAFQIPGDQSI', '0 (no)'),
  ('KWVRRPKLMTPLTFS', '1 (yes)');

Moving on to the next binder.
Could you please find out whether DKSRPPRPPPKPLHL has SPOT peptide array binding signal intensity that meets 100 or exceeds it?
0 (no)
